- System: S180-bearing mice
- Assay name: Bio-distribution in tumor-bearing mice
- Type: in vivo
- Condition parameters: S180-bearing mice, tail vein, 30 min
- Procedure: The labeled solution (0.1 mL, 74 KBq) is injected into mice through the tail vein, and the injection time is recorded. Then the mice were killed by cervical dislocation at different time phases (30 minutes, 60 minutes, and 120 minutes), five mice for each time phase, and the organs of interest such as heart, liver, lung, kidney, spleen, stomach, muscle, blood and tumor are taken out after dissection, and measured with a γ-counter for the radioactive count of each organ. […]

[
  {
    "Compound": "O=C(CCCC[N+]#[C][99Tc-5]([C]#[N+]CCCCC(=O)NC1C(O)OC(CO)C(O)C1O)([C]#[N+]CCCCC(=O)NC1C(O)OC(CO)C(O)C1O)([C]#[N+]CCCCC(=O)NC1C(O)OC(CO)C(O)C1O)([C]#[N+]CCCCC(=O)NC1C(O)OC(CO)C(O)C1O)[C]#[N+]CCCCC(=O)NC1C(O)OC(CO)C(O)C1O)NC1C(O)OC(CO)C(O)C1O (stereo not shown) [[^99mTc-(CN4DG)6]^+]",
    "Tumor uptake": "1.72 ± 0.30 % ID/g"
  }
]

----------
- System: S180-bearing mice
- Assay name: Bio-distribution in tumor-bearing mice
- Format: in vivo
- Condition parameters: S180-bearing mice, tail vein, 30 min
Below, each entry is listed with its recorded Liver uptake.

[
  {
    "Molecule": "O=C(CCC[N+]#[C][99Tc-5]([C]#[N+]CCCC(=O)NC1C(O)OC(CO)C(O)C1O)([C]#[N+]CCCC(=O)NC1C(O)OC(CO)C(O)C1O)([C]#[N+]CCCC(=O)NC1C(O)OC(CO)C(O)C1O)([C]#[N+]CCCC(=O)NC1C(O)OC(CO)C(O)C1O)[C]#[N+]CCCC(=O)NC1C(O)OC(CO)C(O)C1O)NC1C(O)OC(CO)C(O)C1O (stereo not drawn) [[^99mTc-(CN3DG)6]^+]",
    "Liver uptake [% ID/g]": 0.39
  },
  {
    "Molecule": "O=C(CCCC[N+]#[C][99Tc-5]([C]#[N+]CCCCC(=O)NC1C(O)OC(CO)C(O)C1O)([C]#[N+]CCCCC(=O)NC1C(O)OC(CO)C(O)C1O)([C]#[N+]CCCCC(=O)NC1C(O)OC(CO)C(O)C1O)([C]#[N+]CCCCC(=O)NC1C(O)OC(CO)C(O)C1O)[C]#[N+]CCCCC(=O)NC1C(O)OC(CO)C(O)C1O)NC1C(O)OC(CO)C(O)C1O (stereo not drawn) [[^99mTc-(CN4DG)6]^+]",
    "Liver uptake [% ID/g]": 0.66
  },
  {
    "Molecule": "O=C(CCCCC[N+]#[C][99Tc-5]([C]#[N+]CCCCCC(=O)NC1C(O)OC(CO)C(O)C1O)([C]#[N+]CCCCCC(=O)NC1C(O)OC(CO)C(O)C1O)([C]#[N+]CCCCCC(=O)NC1C(O)OC(CO)C(O)C1O)([C]#[N+]CCCCCC(=O)NC1C(O)OC(CO)C(O)C1O)[C]#[N+]CCCCCC(=O)NC1C(O)OC(CO)C(O)C1O)NC1C(O)OC(CO)C(O)C1O (stereo not drawn) [[^99mTc-(CN5DG)6]^+]",
    "Liver uptake [% ID/g]": 0.61
  }
]
